Target: 20S eukaryotic proteasome (Oryctolagus cuniculus)
Construct: purchased BOSTON BIOCHEM (Cambridge, Mass.)
Sequence (G1T4Q9 1-263): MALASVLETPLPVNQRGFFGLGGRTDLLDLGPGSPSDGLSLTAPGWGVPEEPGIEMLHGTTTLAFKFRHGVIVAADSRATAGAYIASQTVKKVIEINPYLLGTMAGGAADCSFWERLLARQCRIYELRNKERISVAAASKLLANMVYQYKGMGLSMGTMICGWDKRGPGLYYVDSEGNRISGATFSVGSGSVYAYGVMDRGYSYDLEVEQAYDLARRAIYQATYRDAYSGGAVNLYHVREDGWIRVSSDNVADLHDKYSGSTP
Test: Inhibition of chymotrypsin-like activity of purified eukaryotic 20S proteasome (Suc-Leu-Leu-Val-Tyr-AMC)
Type: biochemical, rabbit
Details: chymotrypsin-like activity of purified 20S proteasome
measurement_type: pIC50
When answering, recall that pIC50 equals minus log10 of the concentration in mol/L, and write that number alone.

GET /value?item= O=c1c(-c2ccc(O)cc2)coc2cc(O)cc(O)c12 [genistein] &field=pIC50 returns 4.59

* * *

target: purified 20S proteasome (UniProt Q9P992); test: Inhibition of chymotrypsin-like activity of purified 20S proteasome (source not stated); format: biochemical; design: IC50; other: purified 20S proteasome, multiple concentrations; conditions: purified 20S proteasome, multiple concentrations
Sequence (Q9P992 whole entry): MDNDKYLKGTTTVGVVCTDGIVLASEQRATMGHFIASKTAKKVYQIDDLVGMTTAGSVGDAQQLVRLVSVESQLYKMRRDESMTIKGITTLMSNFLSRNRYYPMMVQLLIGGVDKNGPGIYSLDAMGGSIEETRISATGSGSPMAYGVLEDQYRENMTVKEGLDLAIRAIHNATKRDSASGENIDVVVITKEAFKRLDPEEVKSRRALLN
measurement_type: pIC50
When answering, recall that pIC50 equals minus log10 of the concentration in mol/L, and write that number alone.

GET /value?item= O=C(OC1Cc2c(O)cc(O)cc2OC1c1cc(O)c(O)c(O)c1)c1cc(O)c(O)c(O)c1 (single isomer, unassigned; (+)) [(+)-GCG] &field=pIC50 returns 6.39

* * *

system: LNCaP cells; assay: Flow cytometry cell cycle analysis, LNCaP cells; assay type: cell-based, human; settings: 10 μM, 24 hours
measurement_type: increase of G1 population (G1 arrest)

Consider the worked cases shown below.
molecule="O=C(O[C@@H]1Cc2c(O)cc(O)cc2O[C@@H]1c1cc(O)c(O)c(O)c1)c1cc(O)c(O)c(O)c1 [(−)-EGCG, (−)-epigallocatechin-3-gallate, reference compound]" target_under_test="LNCaP cells" experimental_value=~14%
molecule="O=C(OC1Cc2c(O)cc(O)cc2OC1c1cc(O)c(O)c(O)c1)c1cc(O)c(O)c(O)c1 (single isomer, unassigned; (+)) [(+)-EGCG]" target_under_test="LNCaP cells" experimental_value=18%
molecule="O=C(OC1Cc2c(O)cc(O)cc2OC1c1cc(O)c(O)c(O)c1)c1cc(O)c(O)c(O)c1 (single isomer, unassigned; (+)) [(+)-GCG]" target_under_test="LNCaP cells" experimental_value=~14%

Okay, next one:
# lookup: O=C(OC1Cc2c(O)cc(O)cc2OC1c1cc(O)c(O)c(O)c1)c1cc(O)c(O)c(O)c1 (single isomer, unassigned; (-)) [(−)-GCG, reference compound] on LNCaP cells, increase of G1 population (G1 arrest) = ~14%

* * *

target: purified 20S proteasome (UniProt G1T4Q9)
pIC50: −log10 of the molar value.
Decide by pIC50: equal to or exceeding 6 means Met, less means Not met.

Solved entries:
given_smiles=O=C(O[C@H]1CCCC[C@H]1OC(=O)c1cc(O)c(O)c(O)c1)c1cc(O)c(O)c(O)c1 group="Not met"
given_smiles=O=C(O[C@H]1Cc2ccccc2C[C@H]1OC(=O)c1cc(O)c(O)c(O)c1)c1cc(O)c(O)c(O)c1 group=Met

Please look at the following compound next.
Exercise: Decide: pIC50 of O=C(N[C@H]1CCCC[C@H]1NC(=O)c1cc(O)c(O)c(O)c1)c1cc(O)c(O)c(O)c1 >= 6?
Solution: Not met

* * *

biological target: purified 20S proteasome (UniProt Q9P992); test: Inhibition of chymotrypsin-like activity of purified 20S proteasome (source not stated); type: biochemical; set-up: IC50; other: purified 20S proteasome, multiple concentrations; conditions: purified 20S proteasome, multiple concentrations; read-out: IC50
measurement_type: IC50 (nM)
Report only the number, with the unit nM understood.

GET /value?item= O=C(OC1Cc2c(O)cc(O)cc2OC1c1cc(O)c(O)c(O)c1)c1cc(O)c(O)c(O)c1 (single isomer, unassigned; (+)) [(+)-EGCG] &field=IC50 returns 210

* * *

target: 20S eukaryotic proteasome (Oryctolagus cuniculus); construct: purchased BOSTON BIOCHEM (Cambridge, Mass.); assay: Inhibition of chymotrypsin-like activity of purified eukaryotic 20S proteasome (Suc-Leu-Leu-Val-Tyr-AMC); type: biochemical, rabbit; details: chymotrypsin-like activity, rabbit 20S proteasome
measurement_type: IC50 (nM)
Report only the number, with the unit nM understood.

compound="O=C(O[C@@H]1Cc2c(O)cc(O)cc2O[C@@H]1c1cc(O)c(O)c(O)c1)c1cc(O)c(O)c(O)c1 [(−)-EGCG, (−)-epigallocatechin-3-gallate, reference compound]" measurement_type=IC50 experimental_value=205
compound="O=C(OC1Cc2c(O)cc(O)cc2OC1c1cc(O)c(O)c(O)c1)c1cc(O)c(O)c(O)c1 (single isomer, unassigned; (+)) [(+)-GCG]" measurement_type=IC50 experimental_value=270

GET /value?item= O=C(N[C@@H]1Cc2c(O)cc(O)cc2O[C@@H]1c1cc(O)c(O)c(O)c1)c1cc(O)c(O)c(O)c1 [(−)-EGCG-amide] &field=IC50 returns 320

GET /value?item= O=C(N[C@H]1Cc2c(O)cc(O)cc2O[C@H]1c1cc(O)c(O)c(O)c1)c1cc(O)c(O)c(O)c1 [(+)-EGCG-amide] &field=IC50 returns 405

GET /value?item= O=C(OC1Cc2c(O)cc(O)cc2OC1c1cc(O)c(O)c(O)c1)c1cc(O)c(O)c(O)c1 (single isomer, unassigned; (-)) [(−)-GCG, reference compound] &field=IC50 returns 610

GET /value?item= O=C(O[C@@H]1Cc2c(O)cc(O)cc2O[C@@H]1c1ccc(O)c(O)c1)c1cc(O)c(O)c(O)c1 [(−)-ECG] &field=IC50 returns 710

GET /value?item= O=C(OC1Cc2c(O)cc(O)cc2OC1c1cc(O)c(O)c(O)c1)c1cc(O)c(O)c(O)c1 (single isomer, unassigned; (+)) [(+)-EGCG] &field=IC50 returns 170
